tested on: MS2 coat protein; experiment: apparent KD of MS2 coat protein; higher = weaker reporter binding; settings: Eterna round: R107; input ligand: theophylline 20 uM
Parameter apparent KD of MS2 coat protein: see the listing below.

sequenceContent	unitString	apparent KD of MS2 coat protein
GUCCGCAGCCGAAGGAGCGCUAGAAGGUGACAUGAGGAUCACCCAUGUGUGUGAUGUGGCUAGCAGGUAGGUCGCGGAGCGGAUU [Exclusion - Arginine B (Freestyle 18)]	nM	110
GGGUGGUAGGCGGCCGCCACUGAUUUUUAUAUAUAUAUAACAUGAGGAUCACCCAUGUAGAUAUGCAGGACCGGGCCUGUUGUUU [aaaM]	nM	37.8
AUUAAGGAUAUGUAGACGGCGGAGAAGAGACGAGGACCGGUACGGCCGCCACUCGUGUUAGUUAACAUGAGGAUCACCCAUGUAA [#07 Tryptophan A Same State]	nM	56.1
ACAUGAGGAUCACCCAUGUAUUACCGGGAAGGAGCGCGUAAGGACGCAGGUAGGUCGCUCGGCGUCGUGCCGGAAGGCACGACGA [#1 Same State - Arginine A Attempt #22 (HarryS)]	nM	49.8
AAUUCCUCACAUGAGGAUCACCCAUGUGAAGGAGCGCCGAAUAAGGCAGGUAGGUCGCACAUGGAAACCGCUACGAAAGUAGCAA	nM	64.8
AUGCAUAUCAGAAGGAGCGUCUUUAACAUGAGGAUCACCCAUGUAACAUUGAAUUCGAUGAGACAGGUAGGUCGCUGAAUAGUAA [SS-ArgB24]	nM	39.3
GGGUAUGAUCCGGAUACCAGCGAACAUGAGGAUCACCCAUGUGACCUAAGAUAGGCUCUACGCCCUUGGCAGCCGCGAUCGCAGA [Same State Theophylline B GF9]	nM	23.2
AAGCUGCCAAGAAGGUGAUCCAAAUGUGAUACCAGCUAGGAAACUAGCCCUUGGCAGCACAUGAGGAUCACCCAUGUAAUAAUAA [(T)'-(M)'-(T1)-(T2)-(M1)-(M2)_Design1_2/19/17]	nM	191
AACAUGAGGAUCACCCAUGUUUUAUGGGAUACCAGAGACGAAAGUCUCCCUUGGCAGCCCAAGCUGCUCCAUACGAAAGUAUGGU [Theophylline A 17]	nM	18.2
AUCGUACCUGAUGAUACCAGCAAUUGCUCGUAACAUGAGGAUCACCCAUGUGACCAGUGAUGCCCUUGGCAGCAUGGUCGGUGCA [Same State - Theophylline B (Freestyle 21)]	nM	190
CGCAACCCACAUGAGGAUCACCCAUGUGAAGGAGCGGCGAAUAAGCCAGGUAGGUCGCGCAUGAAUAAAUCAUGUAGGAAGCUAA [XArg-A 8 V1]	nM	13.2
UAUAUAAUAACAGAUACCAGCGUGUUAUAAAACAUGAGGAUCACCCAUGUAGUGAUCAAGCGCCCUUGGCAGCUGGUAUUAUAUA [7.A]	nM	140

----------
tested on: K4 kissing-loop RNA reporter; assay: apparent KD of K4 kissing-loop reporter; higher = weaker reporter binding; conditions: Eterna round: R107; input ligand: arginine 13.2 mM;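 also: bound reporter read as fluorescence of individual clusters on recovered sequencing chips by microscopy, with normalized cluster intensities fitted with a binding model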
measuredAttribute: apparent KD of K4 kissing-loop reporter (nM)

sequenceContent	reading
AAAGGAGUGGAAGGAUAUCCUGGUGUGGGUGGUGUUAGUGAUGUUGGUGGUGCAGUGAUGUUGCGCGGAGAAGGUCCGGUAUUGG [BDazzled - #2 - Exc. FMN B]	462
AGUGCACUGGCAGGAUAUGUACAGUGAUGUUGUGUAUGUCAGCAAGUCAAAGACUUGCUCUUCUGUGCAGAAGGGCCUGUGUACA [#05 K4 FMN B Exclusion]	526
CUGGGUUGACGAAAAGUCAACAAACGAGAAGGAGCGCACGAAAGUGCAGGUAGGUCGCUCAGUCCAGUGAUGUUGGAUCAUCCAG [#SwitchBubble 9 #K4Late]	763
UGUACCGAGUCAGGAUAUCAAAAUAAUUGGAGUGAUGUUCCAAAUACGACUGACAAAGUCGGUCGAUGAGAAGGGACUUGGUACU [FmnBS 11 #SwitchBubble #StaticStem]	122
CCAGGACGAUGAGGAGGAUGAAUUACUGAAGGAGCGCAUAUGGUUGCAGGUAGGUCGCGGUGAACAAGUAUAGUGAUGUUAUACC [SSArgA.T]	290
AAUAUAUAGUGAAGGAGCGCGAUAAGCAGUGAUGUUGCUUUGUUAUGAUUGUCUAUUUUUACGCAGGUAGGUCGCACUAUAUAUA [JR_ExcArginiB_Sub020]	104
UGGAGUUGACGAAAAGUCAACUCCCGAGAAGGAGCGGACGAAAGUCCAGGUAGGUCGCUCGCUACCAGUGAUGUUGGUACUGAAA	180
AAUGUACAAGUGAUGUUUGUACUUUCCGAAGGAGCGUCUAAUAAGACAGGUAGGUCGCGGAUUAUCAUAAUUAUCAGGUUUUCAA [JR_SSArginiA_Sub015]	88.8
UGUGUUUACCUGACUCAGUGAUGUUGAGAAGGAGCGUGCAAAAGCACAGGUAGGUCGCUCAACCUAAAUUCAGGUGAGCACUAAA	201
AGCGUCCCUACGGCCGCCACUGGGAGUGAUGUUCCCAGGUUAGGCCUGAGGAUACUAAGGAUCGCCAGGACCGGGUAGCGACCAU [Azaonbe]	81.1
GGGAGUAGUGCGGCCGCCACUGAGAAAGAAGAAGAAUAUAGUGAUGUUAUGUAGGAAAGGAAGAACAGGACCGGGCAUUAGAUUU [SSTRyptB.G]	432
GGUCCGGGCUCGGCCGCCACUCCCUCCUGCCGCAAGGUGGGAUACCGAGUGAUGUUCGGUUGGAGGAGGACCGGGAGCCCGGACC [#2 Exclusion - Tryptophan B Attempt #14 (HarryS)]	124

----------
Parameter apparent KD of MS2 coat protein: see the listing below.
system: MS2 coat protein; assay: apparent KD of MS2 coat protein; designed switch direction (-1 OFF switch, 1 ON switch): -1; higher = weaker reporter binding; conditions: Eterna round: R95; input ligand: microRNA oligo, concentration not stated
measuredAttribute: apparent KD of MS2 coat protein

sequenceContent	reading
GGUUGGCGAGGAUAUACAUGAGGAUCACCCAUGUGAGAGAAGAAAGUGAGAACGAAAAGUAGAAGGCGCUGACG [salish99_ex3_r3_060] (puzzle: Exclusion 3)	43.8 nM
AAGAAACAUGAGGAUCACCCAUGUGAGGAUAUGACUAAGAAAAGAAAAGAAAGAAGAAUCAGAAGGCACAAAGG [salish99-ex1_r3_053] (puzzle: Exclusion 1)	43 nM
GACUGCUGAGGAUAUACAUGAGGAUCACCCAUGUGCUUCAGUAUCGAAAGAUACAUUGGUAGAAGGUAGUAGUC [LRO-Excl3-07] (puzzle: Exclusion 3)	11.1 nM

----------
test system: MS2 coat protein; experiment: apparent KD of MS2 coat protein; designed switch direction (-1 OFF switch, 1 ON switch): -1; higher = weaker reporter binding; details: Eterna round: R95; input ligand: microRNA oligo, concentration not stated
Consider the reported apparent KD of MS2 coat protein of an entry and match it to a band in bottom: < 20 nM; middle: ≥ 20 nM and < 40 nM; top: ≥ 40 nM

sequenceContent	assignedCategory
AAGUACCGUCACGAUAGUGAUGGUACAACAAGCAGUGAAACAUGAGGAUCACCCAUGUCCUCGAUUGCUCGUCUUAU [Sensor 3 - 80] (puzzle: Sensor v3, turn-off variant 2)	top
GUGCAAUGAGGAUAUACGUAGGUGAAAAUCUGUGUGCUCCUACAUGAGGAUCACCCAUGUAGAAGGCAUGUCAC [LRO-Excl2-16] (puzzle: Exclusion 2)	bottom
AAGUAGGCAGGAUAUACAUGAGGAUCACCCAUGUGCCUAUACAAGGUAAUCUUGGGAGGUAGAAGGGCCUACAA [ChP 13.04.2015 #3] (puzzle: Exclusion 3)	middle
CUGAGGUAGCGGUCCUAUGACAUGAGGAUCACCCAUGUACCUUGCUUCGAGCUUUUUGCUCGUCUUAUGAUUCUCAG [Mat - Sensor v3 - turn-off var 1 - JL Mod - D32] (puzzle: Sensor v3, turn-off variant 1)	top
GACUGCUGAGGAUAUACAUGAGGAUCACCCAUGUGCUUCAGUAUCGAAAGAUACAUUGGUAGAAGGUGGUAGUC [LRO-Excl3-08] (puzzle: Exclusion 3)	bottom
GAGAAGUGAGGAUAUACGAUAAGGAUGAAAGGAAGGAAUGAGUAGAAGGCACAUGAGGAUCACCCAUGUAGAGU [JR_Exclu4_Sub079] (puzzle: Exclusion 4)	middle
AAUAAUAAGGAGGAUAUCCUAACCGAAAGGUUAGGAGAAGGCCUAACAUGAGGAUCACCCAUGUUCCUCAAUAA [Mat - Exclusion 6 - Eli Mod - D57] (puzzle: Exclusion 6)	top
UUUAAUUUUUUUUUUUUACAAGCUUUUUGCUCGUCUUAUACAUGAGGAUCACCCAUGUGAGUGAGGGAUAAAUUAUC [JMF 41] (puzzle: Sensor v3, turn-off variant 2)	middle
CUGAGCAGACGGAGAUCCAACAUGAGGAUCACCCAUGUCUCAAAAGCUUUUUGCUUGUCUUAUUCUCCUCUGUUCAC [Enradibe] (puzzle: Sensor v3, turn-off variant 1)	middle
